experiment: Therapeutic index, ration of TD50 for human foreskin fibroblast cell infected with Toxoplasma gondii to ID 50 for Toxoplasma gondii; format: cell-based; conditions: read-out: TI
Criterion: selectivity ratio meeting or surpassing 100. Met: fulfilled. Not met: not fulfilled.

>  <mol smiles>
O=C1c2cc(Br)c(Cl)cc2-n2c1nc1ccccc1c2=O

>  <assigned category>
not fulfilled

$$$$
>  <mol smiles>
O=C1c2ccc(Br)cc2-n2c1nc1ccccc1c2=O

>  <assigned category>
fulfilled

$$$$
>  <mol smiles>
O=C1c2cc(Br)ccc2-n2c1nc1ccccc1c2=O

>  <assigned category>
fulfilled

$$$$
>  <mol smiles>
O=Nc1c(-c2c(O)[nH]c3ccc(I)cc23)[nH]c2ccccc12

>  <assigned category>
not fulfilled

$$$$
>  <mol smiles>
CC(=O)O/N=C1/C(=C2/C(=O)Nc3cc(Br)ccc32)Nc2ccccc21

>  <assigned category>
not fulfilled

$$$$
>  <mol smiles>
O=C1c2cc(F)ccc2-n2c1nc1ccccc1c2=O

>  <assigned category>
fulfilled

$$$$
>  <mol smiles>
O=C1c2ccccc2-n2c1nc1ccccc1c2=O

>  <assigned category>
fulfilled

$$$$
>  <mol smiles>
O=C1Nc2cc(Cl)c(Br)cc2/C1=C1/Nc2ccccc2/C1=N\O

>  <assigned category>
fulfilled

$$$$
>  <mol smiles>
O=C1C(c2c(O)[nH]c3ccc(I)cc23)=Nc2ccccc21

>  <assigned category>
not fulfilled

$$$$
>  <mol smiles>
O=C1Nc2ccc(Cl)cc2/C1=C1/Nc2ccccc2/C1=N\O

>  <assigned category>
not fulfilled

$$$$
>  <mol smiles>
O=C1Nc2ccc(F)cc2/C1=C1/Nc2ccccc2/C1=N\O

>  <assigned category>
fulfilled

$$$$
>  <mol smiles>
O=C1c2cc(Cl)ccc2-n2c1nc1ccccc1c2=O

>  <assigned category>
fulfilled

$$$$
>  <mol smiles>
O=Nc1c(-c2c(O)[nH]c3cc(Cl)ccc23)[nH]c2ccccc12

>  <assigned category>
fulfilled

$$$$
>  <mol smiles>
O=C1Nc2ccc(Br)cc2/C1=C1/Nc2ccccc2/C1=N\O

>  <assigned category>
not fulfilled

$$$$
